Answer each item with its documented protein stability index.
- System: Saccharomyces cerevisiae;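 note: PSI is a weighted mean of sequencing reads over stability bins, variants kept only with over 10 reads, mCherry proximal and sfGFP distal, peptide attached via GGGS linker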
- test_description: protein stability index of tFT-peptide fusion (C-terminal peptide) (PSI (0-1 scale)); higher = more stable (slower turnover)
- test_context: genetic background: wild type; temperature: 30 C
Keep it simple and answer with nothing but the number.

Reported protein stability index for `GWRGVVLVFVLV` : what is it?
0.269

Return reported protein stability index; argument: `RIHRRLIKNKRV`
0.156

Would you mind telling me what protein stability index value was observed for `AFLWSLFVFFRF` ?
0.269

Look at this sequence and give its reported protein stability index. `VSGITLPFLMFH`
0.329

Which protein stability index is reported for this sequence? `RKKIRTYINENV`
0.334

What does the record list as protein stability index for `FSFSFWALLWFP` ?
0.429

// query protein stability index value for entry `ALSGLARFIVCH`
0.243

Request the reported protein stability index associated with `SDLQVMKLRSVC`
0.191

For the sequence shown here, `PPTLLPPLHPAP` , give the reported protein stability index.
0.688

Requested field: protein stability index. Item: `LVYLVCAYSECE`
0.274

# query: protein stability index of entry `PPHRTLLQLRTN`
0.164

Look up protein stability index: `RVFRLDRRLQVV`
0.154

Look up protein stability index: `RIVSGVVLLVFV`
0.226

Given the sequence `LFLVLFCVVGFV` , what is its reported protein stability index?
0.219

Given the sequence `VLRCIWLCFLSV` , what is its reported protein stability index?
0.4

I would be grateful if you could share the reported protein stability index for `LSLPTPLPSPPA` .
0.456

I have this sequence here, `RGAVLLPSLWVV` , and I need its recorded protein stability index.
0.381

Fill blank: measured protein stability index of the sequence `KFFRSWVLTSPA` is ____.
0.444

Name the reported protein stability index value associated with the sequence `LCGGEWVVWVKG`
0.234

State the recorded protein stability index for this entry: `CCVFFLLCLSLF`
0.313

Give the measured protein stability index of `GVCWCVLFVVGC` .
0.259

Recorded protein stability index for `IVRSLFGYLCVV` , please?
0.437

For `LLYYQVFKTRRL` , what is its reported protein stability index?
0.384

Can you look up the measured protein stability index of `AQCRGGGLSGVG` for me?
0.562

If you can, please state the reported protein stability index value of `PHVSALSRDPES` .
0.662

What value of measured protein stability index is listed for `IFAVLVSGSFFF` ?
0.336

Suppose we examine the sequence `CFGSALLKCWLC` ; what protein stability index value has been reported?
0.303

What protein stability index value was documented for this sequence, `VYRVTGSWLMWV` ?
0.357

What value of measured protein stability index is listed for `LFFRLLCAFLFL` ?
0.501

Which protein stability index value is on record for `YVVCFFFKLFYF` ?
0.244

Would you mind telling me what protein stability index value was observed for `WWADRLVGVCIV` ?
0.422

Would you kindly share the measured protein stability index for `ICQFFFFALLSF` ?
0.128

Item under review: `LLSYMVSLVVYL` . Reported protein stability index?
0.166

Given the sequence `VVRAVLCVCASV` , what is its reported protein stability index?
0.413

Consider the sequence shown here: `LNQRGKRKYLIM` What is its recorded protein stability index?
0.412

What does the record list as protein stability index for `LRNYKCLRLLIC` ?
0.0688

Name the recorded protein stability index for `GICLVLVSDIWI` .
0.39

Look at this sequence and give its reported protein stability index. `VVWCLLARVLLV`
0.167

Bench note: what protein stability index did `LVYCWFAEYFLV` show?
0.106

Look up protein stability index for this sequence: `GFLGMFFFWFAL`
0.473

Need protein stability index, item `LICRFLFFVCVG`
0.278

protein stability index lookup needed for `LFHSIPRLLLLK` , thanks.
0.241

Please report the recorded protein stability index for `WSSWFLWVIFRL` .
0.289

Which protein stability index value is on record for `IDSEVHLWKRSA` ?
0.176

So what does the record say about protein stability index for `RVLCLVSSLTLF` ?
0.388

Could you tell me which protein stability index is on file for `RVFGWIEVEVEG` ?
0.386

Look up protein stability index for this sequence: `GLPRRFLLLSVV`
0.137

Could you tell me which protein stability index is on file for `VTMTPSLCFSYS` ?
0.396

Quick one: protein stability index for `SIRVIVAVRNIS` ?
0.239

What protein stability index value was documented for this sequence, `GPRRARLPNFLA` ?
0.0947

What protein stability index value was documented for this sequence, `RDASLLFHFFVC` ?
0.0965

Quick one: protein stability index for `LSPRPPAPYYSP` ?
0.662

Name the reported protein stability index value associated with the sequence `RPPPTPRSVLLN`
0.286

Would you kindly share the measured protein stability index for `PTLPASLHSIYP` ?
0.673

Entry under review: `CGGVQVWRVKVV` . Reported protein stability index?
0.221

Bench note: what protein stability index did `SGFLNVGYLWVC` show?
0.175

# input sequence: `VYWRGLHLQRLL` ; wanted: its protein stability index
0.29

Which value of protein stability index has been reported for `ARWRVGLWRGAS` in the records?
0.3

// returns reported protein stability index for input `KKKKQKKNNNKR`
0.6

Fill blank: measured protein stability index of the sequence `CLCLICFLCWFA` is ____.
0.384

I would be grateful if you could share the reported protein stability index for `KFRGMTLRNKVC` .
0.1

Quick one: protein stability index for `AFYLCLYFMPVS` ?
0.367

What value of protein stability index has been recorded for this entry: `SILVSIFILAMQ`
0.219

Return reported protein stability index; argument: `LFFFLFSLLIFF`
0.259

Query (sequence): `PISNMSIILLFL` ; field requested: protein stability index
0.391

# lookup: protein stability index of `SVIVSSFFLWVF`
0.223

Query (sequence): `YFFVCYFSLLVF` ; field requested: protein stability index
0.119

Look at this sequence and give its reported protein stability index. `FGGFYGRRVLII`
0.209

protein stability index for `DFFTSFSLFFFL` ?
0.636

GET /values?readout=protein stability index&item= `GLGLIRTSRLLC`
0.186

What does the record list as protein stability index for `FTLFFVASVLDL` ?
0.386

What value of measured protein stability index is listed for `TNEWMDVKVFCY` ?
0.486

Query (sequence): `YVCLVWHRNFFS` ; field requested: protein stability index
0.155

Recorded protein stability index for `RLVPFMAVRVLF` , please?
0.41

What value of measured protein stability index is listed for `TDVLLLQLLISV` ?
0.219

Reported protein stability index for `FCCFFVHMSFFL` : what is it?
0.282

Returns the measured protein stability index for the input sequence. Input: `RFICMMYLVYLC`
0.0619

What does the data say about its protein stability index? Entry: `RVGSSLIVVYCV`
0.238

Dear colleague, I am looking for the recorded protein stability index of the following sequence: `PPPAPPLSMPAP`
0.681

Which value of protein stability index has been reported for `MWFFFICYFLSV` in the records?
0.249

Give its protein stability index value. Item: `HLAQYSSSLHLM`
0.424

Which value of protein stability index has been reported for `MLECIIHLTITR` in the records?
0.444
